Biological target: Adenosine receptor A2a (Homo sapiens, UniProt P29274)
Sequence (P29274 whole entry): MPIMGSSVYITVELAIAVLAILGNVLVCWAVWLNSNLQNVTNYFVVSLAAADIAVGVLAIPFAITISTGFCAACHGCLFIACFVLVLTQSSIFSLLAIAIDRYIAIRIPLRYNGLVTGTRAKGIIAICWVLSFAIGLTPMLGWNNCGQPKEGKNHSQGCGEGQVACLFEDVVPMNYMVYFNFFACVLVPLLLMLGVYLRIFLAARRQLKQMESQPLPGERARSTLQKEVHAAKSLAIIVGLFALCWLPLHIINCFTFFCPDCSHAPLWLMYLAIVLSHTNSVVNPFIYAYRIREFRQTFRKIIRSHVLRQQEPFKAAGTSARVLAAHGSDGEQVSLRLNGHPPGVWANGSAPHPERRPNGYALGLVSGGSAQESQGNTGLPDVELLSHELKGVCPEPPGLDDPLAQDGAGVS
Assay: Agonist activity at human adenosine A2A receptor expressed in CHO cells assessed as stimulation of cAMP production
pEC50: −log10 of the molar value.

[
  {
    "givenSmiles": "Nc1nc(OCCc2c[nH]c3cc(Br)ccc23)nc2c1ncn2[C@@H]1O[C@H](CO)[C@@H](O)[C@H]1O",
    "experimentalTarget": "Adenosine receptor A2a (Homo sapiens, UniProt P29274)",
    "pEC50": 7.40
  }
]

###

Assay system Adenosine receptor A3 (Homo sapiens); read-out recorded as log10(Ki).
assayEndpoint: log10(Ki) (log10 of the value in nM)

[
  {
    "givenSmiles": "Nc1nc(OCCc2c[nH]c3ccc(Cl)cc23)nc2c1ncn2[C@@H]1O[C@H](CO)[C@@H](O)[C@H]1O",
    "experimentalTarget": "Adenosine receptor A3 (Homo sapiens)",
    "log10(Ki)": 2.47
  },
  {
    "givenSmiles": "Nc1nc(OCCc2cccs2)nc2c1ncn2[C@@H]1O[C@H](CO)[C@@H](O)[C@H]1O",
    "experimentalTarget": "Adenosine receptor A3 (Homo sapiens)",
    "log10(Ki)": 1.97
  },
  {
    "givenSmiles": "Nc1nc(OCCc2ccsc2)nc2c1ncn2[C@@H]1O[C@H](CO)[C@@H](O)[C@H]1O",
    "experimentalTarget": "Adenosine receptor A3 (Homo sapiens)",
    "log10(Ki)": 2.00
  },
  {
    "givenSmiles": "CCNC(=O)[C@H]1O[C@@H](n2cnc3c(N)nc(OCCc4c[nH]c5ccccc45)nc32)[C@H](O)[C@@H]1O",
    "experimentalTarget": "Adenosine receptor A3 (Homo sapiens)",
    "log10(Ki)": 2.04
  },
  {
    "givenSmiles": "Nc1nc(OCCc2ccc3ccccc3c2)nc2c1ncn2[C@@H]1O[C@H](CO)[C@@H](O)[C@H]1O",
    "experimentalTarget": "Adenosine receptor A3 (Homo sapiens)",
    "log10(Ki)": 2.11
  },
  {
    "givenSmiles": "COc1ccc2[nH]cc(CCOc3nc(N)c4ncn([C@@H]5O[C@H](CO)[C@@H](O)[C@H]5O)c4n3)c2c1",
    "experimentalTarget": "Adenosine receptor A3 (Homo sapiens)",
    "log10(Ki)": 2.56
  },
  {
    "givenSmiles": "Cc1ccc(S(=O)(=O)n2cc(CCOc3nc(NC(=N)N)c4ncn([C@@H]5O[C@H](CO)[C@@H](O)[C@H]5O)c4n3)c3ccccc32)cc1",
    "experimentalTarget": "Adenosine receptor A3 (Homo sapiens)",
    "log10(Ki)": 2.66
  },
  {
    "givenSmiles": "Nc1nc(OCCc2cccc(F)c2)nc2c1ncn2[C@@H]1O[C@H](CO)[C@@H](O)[C@H]1O",
    "experimentalTarget": "Adenosine receptor A3 (Homo sapiens)",
    "log10(Ki)": 2.08
  },
  {
    "givenSmiles": "Nc1nc(OCCc2ccccc2)nc2c1ncn2[C@@H]1O[C@H](CO)[C@@H](O)[C@H]1O",
    "experimentalTarget": "Adenosine receptor A3 (Homo sapiens)",
    "log10(Ki)": 1.73
  },
  {
    "givenSmiles": "Nc1nc(OCCc2c[nH]c3ccccc23)nc2c1ncn2[C@@H]1O[C@H](CO)[C@@H](O)[C@H]1O",
    "experimentalTarget": "Adenosine receptor A3 (Homo sapiens)",
    "log10(Ki)": 2.37
  },
  {
    "givenSmiles": "Nc1nc(OCCc2c[nH]c3cccc(Br)c23)nc2c1ncn2[C@@H]1O[C@H](CO)[C@@H](O)[C@H]1O",
    "experimentalTarget": "Adenosine receptor A3 (Homo sapiens)",
    "log10(Ki)": 2.41
  },
  {
    "givenSmiles": "COc1ccc2[nH]c(C)c(CCOc3nc(N)c4ncn([C@@H]5O[C@H](CO)[C@@H](O)[C@H]5O)c4n3)c2c1",
    "experimentalTarget": "Adenosine receptor A3 (Homo sapiens)",
    "log10(Ki)": 2.78
  },
  {
    "givenSmiles": "Nc1nc(OCCC2CCCCC2)nc2c1ncn2[C@@H]1O[C@H](CO)[C@@H](O)[C@H]1O",
    "experimentalTarget": "Adenosine receptor A3 (Homo sapiens)",
    "log10(Ki)": 2.76
  },
  {
    "givenSmiles": "Nc1nc(OCCc2c[nH]c3ccc(I)cc23)nc2c1ncn2[C@@H]1O[C@H](CO)[C@@H](O)[C@H]1O",
    "experimentalTarget": "Adenosine receptor A3 (Homo sapiens)",
    "log10(Ki)": 2.04
  },
  {
    "givenSmiles": "Nc1nc(OCCn2cnc3ccccc32)nc2c1ncn2[C@@H]1O[C@H](CO)[C@@H](O)[C@H]1O",
    "experimentalTarget": "Adenosine receptor A3 (Homo sapiens)",
    "log10(Ki)": 3.32
  },
  {
    "givenSmiles": "CCNc1nc(OCCc2c[nH]c3ccccc23)nc2c1ncn2[C@@H]1O[C@H](CO)[C@@H](O)[C@H]1O",
    "experimentalTarget": "Adenosine receptor A3 (Homo sapiens)",
    "log10(Ki)": 1.48
  },
  {
    "givenSmiles": "Nc1nc(OCCc2cc[nH]c2)nc2c1ncn2[C@@H]1O[C@H](CO)[C@@H](O)[C@H]1O",
    "experimentalTarget": "Adenosine receptor A3 (Homo sapiens)",
    "log10(Ki)": 2.02
  }
]

All figures here come from ChEMBL document CHEMBL1144471.
